Method: Permeability test with Caco-2 cells
Assay type: in vitro ADME
Assay context: human, Caco-2 monolayer, apical to basolateral, 30 and 60 minutes, read-out: apparent permeation coefficient (Papp)

Line notation | Papp A→B at 60 min, 10 μM, ×10⁻⁶ cm/s
CCCCNC(=O)C(=O)[C@H](CC(C)C)NC(=O)[C@@H](NS(=O)(=O)c1ccc(F)cc1)C(C)C | 17
